test-system: alpha-thrombin (Homo sapiens, UniProt P00734;P00734 P00734:328-363,P00734:364-622)
experimental-protocol: possibly CITED (ref 13); apparent Kd for strand-displacement probe; Table 1 labels of probes 3 and 4 appear swapped, Table 2 and sequence assign probe 3 to thro
metric-name: Kd

Item: CACTGTGGTTGGTGTGGTTGG (ssDNA) [Probe 3 (thrombin aptamer containing)] | Kd: ~400 nM

The values you see were collected from patent US20100009868.
